Each entry below lists one item and its recorded protein stability index value.
B1: OR10K2 (parent)
chain: SLARLQQLLFVIFLLLYLFTLGTN

# Variants of: B1
# assay_info: protein stability index of a GFP-peptide fusion (GPS, HEK-293T) (PSI 1-6); higher = more stable;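 note: lentivirally expressed fusions sorted by FACS into six bins by GFP to DsRed ratio, PSI derived from sequencing read proportions per bin multiplied by bin number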
# condition_details: c terminus: a fixed tail appended
Give a plain numeric answer without units written out.

Guide cases for protein stability index, answers given:
| variant_string | protein stability index |
| --- | --- |
| Q7K | 3.27 |
| L21S | 2.34 |

stdin: Which protein stability index value belongs to "R4A" ?
stdout: 4.04

stdin: Please give the result for "S1V" too.
stdout: 2.31

stdin: Same thing, different variant: "L15T"
stdout: 2.62

stdin: Then this variant: "V11S"
stdout: 1.85

stdin: Param item: "G22K"
stdout: 2.48

stdin: And for "L8W" ?
stdout: 2.53

stdin: Please answer likewise for "I12E"
stdout: 1.78

stdin: Moving on to the next variant: "L21Y"
stdout: 1.62

stdin: # repeat for "I12L"
stdout: 2.29

stdin: Also, "Q6F" please.
stdout: 2.72

stdin: Please do the same for "N24L" as well.
stdout: 3.23

stdin: Next variant up: "L5M"
stdout: 1.41

stdin: And for "A3H" ?
stdout: 3.07

stdin: Try "T20Q" next.
stdout: 1.45

stdin: And the next one, "L5E" ?
stdout: 2.27

stdin: Would you mind doing "L8F" as well?
stdout: 2.88

stdin: // next record "L15V"
stdout: 1.48

stdin: Cool, now "N24A"
stdout: 2.11

stdin: Can you check "L5G" next?
stdout: 3.76

The measurements presented in this section are drawn from the supplement of paper PMC10567573.
